# test_context: in acetonitrile, 321.05 K
value_type: solubility (mole fraction)
Give only the figure.

Fill blank: measured solubility (mole fraction) of the compound CCCCOC(=O)c1ccc(O)cc1 is ____.
0.857

====

# test_context: in ethyl acetate, 311.05 K
value_type: solubility (mole fraction)
Lab note: jot down the number only; don't add units.

Which solubility (mole fraction) value is on record for CCCCOC(=O)c1ccc(O)cc1 ?
0.688

====

# test_context: in acetonitrile, 291.05 K
value_type: solubility (mole fraction)
Form: value (number only, do not type unit).

So what's the measured solubility (mole fraction) for this one? CCCCOC(=O)c1ccc(O)cc1
0.449

====

# test_context: in ethyl acetate, 291.05 K
value_type: solubility (mole fraction)
Number only, no unit.

Which solubility (mole fraction) is listed for CCCCOC(=O)c1ccc(O)cc1 ?
0.501
